# Test system: O-2A/Type 2 astrocytes
# Experiment description: [3H]GABA uptake in O-2A/Type 2 astrocyte cultures
# Format: cell-based, rat
# Measurement conditions: Rattus norvegicus, Astrocyte, 3 h, read-out: IC50 for inhibition of [3H]GABA uptake, O-2A/Type 2 astrocytes with NNC-711, in the presence of 10 μM NNC-711
Entries and their IC50 values follow.
Assay readout: IC50 (µM)

>>> value_measured("NCCS(=O)O [hypotaurine]")
29
>>> value_measured("N[C@@H]1CCC[C@H](C(=O)O)C1 (relative stereo) [ACHC, cis-3-aminocyclohexanecarboxylic acid]")
2360
>>> value_measured("NCC[C@H](N)C(=O)O [L-DABA, L-(2,4)diaminobutyric acid]")
91

###

# Tested target: human GAT-3 (Homo sapiens)
# Sequence (P48066 whole entry): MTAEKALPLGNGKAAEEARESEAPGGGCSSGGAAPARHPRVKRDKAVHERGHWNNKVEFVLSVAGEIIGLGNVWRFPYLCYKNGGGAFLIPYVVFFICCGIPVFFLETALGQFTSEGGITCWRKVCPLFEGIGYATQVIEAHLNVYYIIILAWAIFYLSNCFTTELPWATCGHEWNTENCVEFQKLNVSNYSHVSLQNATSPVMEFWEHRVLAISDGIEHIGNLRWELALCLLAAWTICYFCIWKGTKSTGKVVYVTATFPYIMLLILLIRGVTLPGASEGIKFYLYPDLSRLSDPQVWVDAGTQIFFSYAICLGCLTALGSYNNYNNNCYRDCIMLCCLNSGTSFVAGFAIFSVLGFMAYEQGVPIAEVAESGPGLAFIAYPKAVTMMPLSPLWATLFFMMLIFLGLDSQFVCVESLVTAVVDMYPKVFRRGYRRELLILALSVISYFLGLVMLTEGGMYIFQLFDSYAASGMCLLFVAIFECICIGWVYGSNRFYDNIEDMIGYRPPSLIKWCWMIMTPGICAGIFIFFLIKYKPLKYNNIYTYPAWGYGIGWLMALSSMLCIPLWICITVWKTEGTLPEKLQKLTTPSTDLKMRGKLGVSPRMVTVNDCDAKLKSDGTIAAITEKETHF
# Measurement conditions: read-out: IC50 for inhibition of [3H]GABA uptake, human GAT-3; stable cell line; 50 nM [3H]GABA
Assay readout: IC50 (mM)

>>> value_measured("O=C(O)C1=CCCN(CCON=C(c2ccccc2)c2ccccc2)C1")
1.7

###

# Tested on: neuronal cultures
# Experiment description: [3H]GABA uptake in primary neuronal cell cultures
# Type: cell-based, rat
# Measurement conditions: Rattus norvegicus, read-out: IC50 for [3H]GABA uptake, neuronal cultures, absence of NNC-711
pIC50: −log10 of the molar value.
Assay readout: pIC50

>>> value_measured("NCCC(=O)O")
"~2.40"

###

# Tested target: human GAT-1 (Homo sapiens, UniProt P30531)
# Sequence (P30531 whole entry): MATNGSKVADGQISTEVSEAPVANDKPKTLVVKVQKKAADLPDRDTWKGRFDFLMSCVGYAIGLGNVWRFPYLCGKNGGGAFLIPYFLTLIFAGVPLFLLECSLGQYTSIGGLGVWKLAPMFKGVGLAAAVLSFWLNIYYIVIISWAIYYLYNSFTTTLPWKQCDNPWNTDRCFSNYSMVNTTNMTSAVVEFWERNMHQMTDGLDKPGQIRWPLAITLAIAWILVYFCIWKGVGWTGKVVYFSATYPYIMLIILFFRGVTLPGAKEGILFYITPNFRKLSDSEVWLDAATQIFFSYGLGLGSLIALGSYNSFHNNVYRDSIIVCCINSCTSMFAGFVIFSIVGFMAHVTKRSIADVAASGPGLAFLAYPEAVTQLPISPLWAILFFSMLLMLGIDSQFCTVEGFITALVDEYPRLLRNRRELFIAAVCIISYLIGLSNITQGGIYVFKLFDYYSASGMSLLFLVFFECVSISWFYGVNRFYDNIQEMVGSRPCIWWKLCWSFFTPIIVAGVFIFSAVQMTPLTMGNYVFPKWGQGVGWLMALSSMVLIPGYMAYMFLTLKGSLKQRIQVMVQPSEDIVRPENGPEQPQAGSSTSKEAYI
# Experiment description: cell-based
pIC50: −log10 of the molar value.
Assay readout: pIC50

>>> value_measured("NCCC(=O)O")
2.24

###

# Tested on: O-2A/Type 2 astrocytes
# Experiment description: [3H]GABA uptake in O-2A/Type 2 astrocyte cultures
# Type: cell-based, rat
# Measurement conditions: Rattus norvegicus, Astrocyte, read-out: IC50 for GABA transport, O-2A/Type 2 astrocytes, in the presence of 10 μM NNC-711
# Description: Preparation of primary rat astrocyte cell cultures: Primary glial cultures were established from newborn Sprague-Dawley rat brains. Brains minus cerebella were removed aseptically and carefully dissected free of meninges. […] The cells were dissociated by trituration through a serological pipette. Separate procedures were then used for the preparation of Type-1 and O-2A/Type-2 astrocyte cultures, as will now be described. […]
pIC50: −log10 of the molar value.
Assay readout: pIC50

>>> value_measured("N[C@@H]1CCC[C@H](C(=O)O)C1 (relative stereo) [ACHC, cis-3-aminocyclohexanecarboxylic acid]")
"~2.70"
